Data origin, for the record: the supplement of paper PMC12667976

B1: library; numbered along this chain (parent)
chain: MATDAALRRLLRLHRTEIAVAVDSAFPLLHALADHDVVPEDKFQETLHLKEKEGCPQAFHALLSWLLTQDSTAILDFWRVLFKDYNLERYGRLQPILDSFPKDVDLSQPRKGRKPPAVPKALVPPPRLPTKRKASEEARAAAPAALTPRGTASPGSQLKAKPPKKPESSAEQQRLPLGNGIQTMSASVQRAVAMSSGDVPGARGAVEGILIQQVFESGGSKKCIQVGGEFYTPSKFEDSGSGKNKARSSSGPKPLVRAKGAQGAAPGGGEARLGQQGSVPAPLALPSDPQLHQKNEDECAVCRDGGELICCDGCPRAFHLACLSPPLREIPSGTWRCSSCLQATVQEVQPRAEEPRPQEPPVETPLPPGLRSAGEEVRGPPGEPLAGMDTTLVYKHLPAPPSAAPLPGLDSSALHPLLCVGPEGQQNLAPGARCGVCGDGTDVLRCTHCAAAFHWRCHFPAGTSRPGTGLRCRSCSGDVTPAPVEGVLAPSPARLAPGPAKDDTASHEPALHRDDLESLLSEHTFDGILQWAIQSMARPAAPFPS

# Variants of: B1
# Test Details: AIRE transcriptional activation functional score (insulin promoter-GFP; nonsense median 0, synonymous median 1) (normalised score); higher = higher AIRE activity (more reporter activation)
# Reported Conditions: with insulin promoter-GFP reporter in HEK293
Quantity Measured: AIRE transcriptional activation functional score
Answers are plain numbers.

# Mut, Endpoint Value
measured = [
    ("L392Q", 1.18),
    ("E167K", 0.721),
    ("R139Y", 1.25),
    ("C437A", 0.0947),
    ("R132V", -0.3),
    ("L13V", 0.593),
]

State recorded AIRE transcriptional activation functional score for all listed variants.
1. C302H
2. H523D

## Result
1. 0.701
2. 0.678

State recorded AIRE transcriptional activation functional score for all listed variants.
1. E171M
2. L47K
3. A510T
4. Q172G
5. R328V
6. T3R

## Result
2.07
-1.23
0.933
0.609
1.1
1.18
